B1: SOAT1 (parent)
chain: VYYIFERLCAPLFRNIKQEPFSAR

variants of: B1; experiment: protein stability index of a GFP-peptide fusion (GPS, HEK-293T) (PSI 1-6); higher = more stable; conditions: c terminus: a fixed tail appended;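 further: lentivirally expressed fusions sorted by FACS into six bins by GFP to DsRed ratio, PSI derived from sequencing read proportions per bin multiplied by bin number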
Everything with protein stability index lower than 2 is -1; everything else, including exactly 2, is 1.

Consider the following illustrative entries.
Prompt: Could you verify whether the entry "P11F" shows protein stability index of no less than 2?
Completion: -1

Prompt: Test whether the variant "P20A" records protein stability index of 2 or higher.
Completion: 1

Prompt: API: above_or_equal(metric=protein stability index, cutoff=2) for item "R7S"
Completion: 1

Prompt: Hi team, for "F13R" , is the recorded protein stability index at or above 2?
Completion: 1

Prompt: Tell me whether protein stability index is at least 2 here: "Y3H"
Completion: -1

Others:
Prompt: Decide: protein stability index of "L12P" >= 2?
Completion: 1
